// HCT-15 GI50 records
Give the value, in units of µM, as a plain number.

O=C(NC1CCN(Cc2ccccc2)CC1)c1ccc(I)cc1 : 59.6
O=C(Nc1nnc(-c2ccc(Cl)cc2)o1)C(SC(=S)N1CCOCC1)c1ccccc1 (centres undefined) : 6.03
O=C1Oc2cc3c(c4cccc1c24)OCN(c1ccc(Cl)cc1)C3 : 2.97

Prompt line: Need GI50 of COc1ccc(Oc2cccc(C3C4C(=O)N(c5ccc(C)c(Cl)c5)C(=O)C4ON3C(C(N)=O)c3ccccc3)c2)cc1 (centres undefined) , thanks.
Response line: 8.39

---

system: HOP-62; assay: NCI tumour cell line growth inhibition, 48 h
Calls of active or inactive are those of the source. No stated cut-off is given here; in the data, active = GI50 up to about 1.1 µM and inactive = higher.
Output constraint: value belongs to true (1) = active, false (0) = inactive

Example entries and their recorded answers appear below.
CC(NNC(=O)c1ccncc1)c1ccc(F)cc1 (stereo not given) : false (0)
O=c1c(C(c2ccc(/C=C/c3ccccc3)cc2)c2c(O)oc3cc(O)ccc3c2=O)c(O)oc2cc(O)ccc12 : false (0)
CCCCC[C@@H]1CCCC2NC(CCCCCO[Si](c3ccccc3)(c3ccccc3)C(C)(C)C)CCC21 (stereo not given in full) : false (0)
CN(C(=O)[C@@H](NC(=O)OC(C)(C)C)c1ccccc1)[C@H]1CCCC[C@@H]1N1CCCC1 : false (0)
O=C(c1ccccc1)c1c(C(F)(F)F)[n+]([O-])c2ccccc2[n+]1[O-] : true (1)
Cc1cc(S(=O)(=O)Nc2nc3ccccc3[nH]2)c(S)cc1Cl : false (0)
Cc1cccc2c(=O)c3cccc([C@H](C)C(=O)O)c3oc12 : false (0)
CCSC1=C(C)N(/C=N/C(C)(C)C)CC1 : false (0)
C1=C2C3=[N+](CCCCC3)CC2Cc2ccsc21 (stereo not given) : false (0)

In the following, a different molecule is considered.
Prompt line: Test call, this molecule: CC1(CC(=O)O)OC2CCCCCC2O1.NCc1ccccc1 (stereo not given)
Response line: false (0)

---

tested on: SK-MEL-2; assay: NCI tumour cell line growth inhibition, 48 h
Activity calls are given as the source filed them. Rule as the data show it: active = GI50 up to about 1.1 µM and inactive = higher.
// one of Yes = active, No = inactive, no free text

Answered cases to consult:
CS(=O)(=O)Nc1ccc2c(c1)oc(=O)c1ccccc12 : No
CCC(=O)Nc1ccc(/N=C/c2cccc(Oc3ccccc3)c2)cc1 : No
O=C(O)CCNCCCCNCCC(=O)O : No
Cc1ccc(/C=N/Nc2cnccn2)s1 : No
CC[n+]1c(/C=C/c2ccc(N(CCCl)CCCl)cc2)ccc2cc(I)ccc21 : Yes
O=C(NCCCCCCCCNC(=O)Nc1cccc2ccccc12)Nc1cccc2ccccc12 : No

Prompt line: // outcome(item) with item = COC(=O)C1CCC(=S)N1C(=O)OCc1ccccc1 (configuration not stated)
Response line: No

Prompt line: Again, but for CCOC(=O)/C=C(\C(=O)OCC)n1cnc2c(N)ncnc21
Response line: No

Prompt line: Can you check NCCN1C(=O)c2cc(Cl)c(Cl)cc2C1(O)c1ccc(Cl)cc1 (configuration not stated) next?
Response line: No

Prompt line: Try CCOC(=O)CCNC(=O)c1cc(C)cc2c1Oc1c(cc(C)cc1C(=O)NCCC(=O)OCC)S2 next.
Response line: No

Prompt line: Same for COCN/C(N)=N/C#N
Response line: No

Prompt line: Now consider COc1cc(C2S/C(=C/c3ccccc3)C(=O)N2c2ccccn2)cc(OC)c1OC (configuration not stated) .
Response line: No

---

test system: OVCAR-4; assay: NCI tumour cell line growth inhibition, 48 h
Calls of active or inactive are those of the source. Rule as the data show it: active = GI50 up to about 1.1 µM and inactive = higher.
Entries and their GI50 values follow.

N#Cc1ncn(-c2ccccc2)c1N : > 100 µM (inactive)
CCCc1c(C(=O)OCC)[nH]c(-c2ccc(-c3[nH]c(C(=O)OCC)c(CCC)c3C(=O)OCC)s2)c1C(=O)OCC : 18.4 µM (inactive)
O=[N+]([O-])C(=C1NCCN1)/C(Cl)=C(/Cl)N1CCOCC1 : > 100 µM (inactive)
O=C1NC2=NN=C(c3ccc(Br)cc3)CN2NC12c1ccccc1-c1ccccc12 : > 100 µM (inactive)

Prompt line: For the compound shown here, CC[C@@]1(C[C@H]2C[C@@]3(C(=O)OC)c4[nH]c5ccccc5c4CCN3C2=O)COC2(CCCCC2)O1 , give the reported GI50.
Response line: 58.2 µM (inactive)

---

system: HCT-116; experiment: NCI tumour cell line growth inhibition, 48 h
The source made the active and inactive calls. No stated cut-off is given here; in the data, active = GI50 up to about 1.1 µM and inactive = higher.
Returns: one label drawn from active, inactive

Illustrative cases are given below, each with its answer.
O=C(O)CCCCn1ccc(=O)[nH]c1=O : inactive
COC(=O)C12Oc3ccc(-c4ccc5c(c4O)C(O)=C4C(=O)CC(C)C(O)C4(C(=O)OC)O5)c(O)c3C(O)=C1C(=O)CC(C)C2O (stereo unspecified) : active

Prompt line: Recorded test outcome, item COC1=CC(c2ccc(Br)[nH]2)=N/C1=C/NCC(C)C
Response line: inactive

Prompt line: Next up: Clc1nc2n(c1/C=C/c1cccs1)CCS2
Response line: inactive

Prompt line: What do we get for O=C(O)CCSc1ncnc2[nH]cnc12 ?
Response line: inactive

Prompt line: Let us now turn to Cc1nc(-c2ccccc2)cn2c1nc1ccccc12
Response line: inactive

Prompt line: Now try Nc1c(S(=O)(=O)O)cc(S(=O)(=O)O)c2ccc(/N=N/c3ccccc3)c(O)c12 .
Response line: inactive

Prompt line: Next molecule: COC(=O)C1=C(O)C(C(=O)OC)[C@]2(O)[C@H](C(=O)OC)[C@H]1C[C@@H](c1ccc(OC)cc1)[C@H]2C(=O)OC (stereo partly specified)
Response line: inactive

Prompt line: // query: O=C(Nc1cc(Cl)c(Cl)cc1Cl)C(=O)C(C(=O)c1ccccc1)C1OC(=O)c2ccccc21 (stereo unspecified)
Response line: inactive

Prompt line: Similarly, N#Cc1nc(-c2cccc(-c3nc(C#N)c(N)o3)n2)oc1N ?
Response line: inactive

Prompt line: Would you mind doing Cc1cc(S(=O)(=O)Nc2nc3ccccc3[nH]2)c(S)cc1Cl as well?
Response line: inactive

Prompt line: Lookup NC(CC1=CS(=O)(=O)c2ccc(Cl)cc21)C(=O)O (stereo unspecified)
Response line: inactive

Prompt line: What do you have for c1ccc(Nc2nnc(-c3nsc4ccccc34)o2)cc1 ?
Response line: inactive

Prompt line: And then CCCCCCCCCCn1cccc1/C=C/c1ccc(/C=C/c2cccn2CCCCCCCCCC)cc1 , what is it?
Response line: inactive

Prompt line: Next molecule: O=C(O)C(=Cc1ccnc2ccccc12)C(=O)O
Response line: inactive

Prompt line: Let us now turn to N#Cc1c(N2CCN(c3ccc([N+](=O)[O-])cc3)CC2)[n+]([O-])c2ccccc2[n+]1[O-]
Response line: inactive

Prompt line: Repeat with CCOC(=O)CCCc1cc(O)c2c(C)c3[nH]c4ccc(Cl)cc4c3c(C)c2n1
Response line: inactive

Prompt line: Item: CCSC1=C(C)N(/C=N/C(C)(C)C)CC1
Response line: inactive

---

test system: A498; experiment: NCI tumour cell line growth inhibition, 48 h
Calls of active or inactive are those of the source. No stated cut-off is given here; in the data, active = GI50 up to about 1.1 µM and inactive = higher.
GI50 reference

Solved cases (2 shown):
O=C(O)CCCCn1ccc(=O)[nH]c1=O : > 100 µM (inactive)
O=c1[nH]c2ccccc2c(=O)n1/N=C/c1ccc(O)cc1 : > 100 µM (inactive)

Prompt line: Return reported GI50; argument: CN(C)CCCn1c(Cc2ccc(Cl)cc2)nc2cc(C(F)(F)F)ccc21
Response line: 12.7 µM (inactive)

Prompt line: Next record, please: CC(C)=CCC[C@@H](C)C1=C(O)C(=O)C(C)=C(Nc2ccccc2Br)C1=O
Response line: 7.19 µM (inactive)

Prompt line: Try the compound COc1cc2cc(C(=O)N3CC(CCl)c4ccc([N+](=O)[O-])cc43)[nH]c2c(OC)c1OC (stereo not given)
Response line: > 100 µM (inactive)

---

tested on: NCI-H460; test: NCI tumour cell line growth inhibition, 48 h
Active and inactive are the calls of the source. Cut-off read from the data, not from the text of the source: active = GI50 up to about 1.1 µM and inactive = higher.
MEASURE_NAME: GI50

CC[n+]1c(/C=C/c2ccc(N(CCCl)CCCl)cc2)ccc2cc(I)ccc21 : 1.31 µM (inactive)
CC(O)C1OC(n2ccc(=O)[nH]c2=O)CC1n1cncn1 (configuration not stated) : > 100 µM (inactive)
CN(C)CC/C(=N\Nc1ccc([N+](=O)[O-])cc1)c1ccccc1 : 9.48 µM (inactive)
CC1(C)CC(=O)C(CCC(=O)/C=C/c2ccccc2)C(=O)C1 : > 100 µM (inactive)
C[C@]12CC[C@H]3[C@@H](CCC4=CC(=O)C=C[C@@]43O)[C@@H]1CCC2=O : > 100 µM (inactive)
COc1ccc2c(n1)Sc1nc3ccccc3nc1N2 : 63.1 µM (inactive)
CCOC(=O)c1nnc2c(C#N)c(-c3ccccc3)c(C)n2c1N : 39.8 µM (inactive)
O=C(O)c1ccccc1C(=O)NCC1S(=O)(=O)OCCOS1(=O)=O : > 100 µM (inactive)
CN1CCN(c2cc3nc4cc(O)cc(O)c4c(O)c3cc2N)CC1 : 36.3 µM (inactive)
CC(C)(C)n1c(=O)n2n(c1=O)Cc1cccc3cccc(c13)C2 : 10.7 µM (inactive)

Prompt line: If you can, please state the reported GI50 value of N#Cc1nc(-c2cccc(-c3nc(C#N)c(N)o3)n2)oc1N .
Response line: > 100 µM (inactive)

Prompt line: Next compound: CCOc1ccnc2c(OC)c(C)c3nc4ccccc4nc3c12
Response line: > 100 µM (inactive)
